Hello, the source for this data is patent US7064204B2, in case you need it.

Target: human A1 adenosine receptors (Homo sapiens)
Construct: expressed in transfected cells; host or cells: CHO cells
Sequence (P30542 whole entry): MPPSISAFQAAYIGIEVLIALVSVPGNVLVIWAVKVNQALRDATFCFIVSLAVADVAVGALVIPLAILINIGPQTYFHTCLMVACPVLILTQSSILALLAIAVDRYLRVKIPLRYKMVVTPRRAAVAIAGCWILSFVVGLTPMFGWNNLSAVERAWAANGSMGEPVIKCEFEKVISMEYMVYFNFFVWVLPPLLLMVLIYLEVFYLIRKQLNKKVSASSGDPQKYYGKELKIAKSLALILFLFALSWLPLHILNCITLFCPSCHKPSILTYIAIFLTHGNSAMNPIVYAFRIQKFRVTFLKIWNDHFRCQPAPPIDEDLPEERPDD
Experiment: Displacement of [3H]DPCPX binding at human A1 adenosine receptors expressed in CHO cells
Details: Table 2, footnote b: [3H]DPCPX, human A1
Examples of compounds with documented Ki follow.

Structure notation	Target of assay	Value kind	Recorded value
Nc1nc2c(cnn2CCc2ccccc2)c2nc(-c3ccc(OCC(=O)O)cc3)nn12	human A1 adenosine receptors (Homo sapiens)	Ki	> 1 µM
CCOC(=O)COc1ccc(-c2nc3c4cnn(CCc5ccccc5)c4nc(N)n3n2)cc1	human A1 adenosine receptors (Homo sapiens)	Ki	> 1 µM
CCOc1ccccc1-c1nc2c3cnn(CCc4ccccc4)c3nc(N)n2n1	human A1 adenosine receptors (Homo sapiens)	Ki	> 1 µM

# next compound below
Tell us which Ki value is on record for Nc1nc2c(cnn2CCc2ccccc2)c2nc(-c3ccc(OCC(=O)Nc4ccc(I)cc4)cc3)nn12 > 1 µM
